Experiment: Dissociation constant, pKa of the compound
Type: physicochemical
PROPERTY: pKa
Simply state the number, no unit and no words.

Study these solved cases before continuing.
COMPOUND: CC(C)(N)CNC(=O)CC1CCC2(CC1)OOC1(OO2)C2CC3CC(C2)CC1C3 (stereo unspecified)
pKa: 9.05
--
COMPOUND: c1cc([C@H]2CC[C@]3(CC2)OO[C@]2(O3)C3CC4CC(C3)CC2C4)ccc1OCCN1CCOCC1
pKa: 6.81

Data request, read-out pKa, for CC(C)(N)CNC(=O)CC1CCC2(CC1)COC1(OO2)C2CC3CC(C2)CC1C3 (stereo unspecified) 9.05

Looking for the measured pKa of CC(C)(N)CNC(=O)C[C@H]1CC[C@]2(CC1)OO[C@]1(O2)C2CC3CC(C2)CC1C3 , can you help? 9.05

Quick one: pKa for c1cc([C@H]2CC[C@@]3(CC2)C[C@@]2(OO3)C3CC4CC(C3)CC2C4)ccc1OCCN1CCOCC1 ? 6.82

So what does the record say about pKa for CC(C)(N)CNC(=O)C[C@H]1CC[C@@]2(CC1)C[C@@]1(OO2)C2CC3CC(C2)CC1C3 ? 9.05

----------
Assay: Half life in mouse whole blood
Type: ADME, tissue-based
Form field: half-life (one value per entry).
// return numeric value only (unit: min, not printed)

Illustrative cases are given below, each with its answer.
MOLECULE: CC(C)(N)CNC(=O)CC1CCC2(CC1)COC1(OO2)C2CC3CC(C2)CC1C3 (centres undefined)
PROPERTY: half-life
MEASUREMENT_UNIT: min
RECORDED_VALUE: 138

MOLECULE: CC(C)(N)CNC(=O)CC1CCC2(CC1)OOC1(OO2)C2CC3CC(C2)CC1C3 (centres undefined)
PROPERTY: half-life
MEASUREMENT_UNIT: min
RECORDED_VALUE: 54.6

MOLECULE: CC(C)(N)CNC(=O)C[C@H]1CC[C@]2(CC1)OO[C@]1(O2)C2CC3CC(C2)CC1C3
PROPERTY: half-life
MEASUREMENT_UNIT: min
RECORDED_VALUE: 55.8

Can you share its half-life? I mean this molecule: CC(C)(N)CNC(=O)C[C@H]1CC[C@@]2(CC1)C[C@@]1(OO2)C2CC3CC(C2)CC1C3 60

----------
Assay: AUC (0 to 24 hrs) in mouse at 30 mg/kg, po by LC-MS analysis
Type: ADME, organism-based
Set-up: time < 24 hr, dose 30 mg/kg, route oral
Conditions: plasma
PROPERTY: AUC(0-t) at 24 h
Note: a bare number is incomplete; add the unit.

Below are worked cases with known answers.
MOLECULE: CC(C)(N)CNC(=O)CC1CCC2(CC1)COC1(OO2)C2CC3CC(C2)CC1C3 (centres undefined)
PROPERTY: AUC(0-t) at 24 h
RECORDED_VALUE: 22.4 µM·h
--
MOLECULE: CC(C)(N)CNC(=O)C[C@H]1CC[C@]2(CC1)OO[C@]1(O2)C2CC3CC(C2)CC1C3 [OZ277]
PROPERTY: AUC(0-t) at 24 h
RECORDED_VALUE: 5.13 µM·h
--
MOLECULE: c1cc([C@H]2CC[C@]3(CC2)OO[C@]2(O3)C3CC4CC(C3)CC2C4)ccc1OCCN1CCOCC1 [ARTEFENOMEL]
PROPERTY: AUC(0-t) at 24 h
RECORDED_VALUE: 52.7 µM·h

Now consider a different molecule.
Any idea what AUC(0-t) at 24 h was measured for CC(C)(N)CNC(=O)CC1CCC2(CC1)OOC1(OO2)C2CC3CC(C2)CC1C3 (centres undefined) ? 13.5 µM·h
